Test system: BCRP
Test: Efflux ratio of apparent permeability across basolateral to apical side to apical to basolateral side in human Caco-2 expressing BCRP cells in presence of novobiocin
Type: ADME, cell-based
Conditions: Caco-2, with novobiocin (concentration not stated)
PARAMETER: efflux ratio
Answers are plain numbers.

Exercise: // lookup efflux ratio for O[C@@H]1CCCC[C@H]1CNc1cc(Br)cc2[nH]ncc12
Solution: 0.51

----------
Target: Indoleamine 2,3-dioxygenase 1 (Homo sapiens)
Sequence (P14902 whole entry, the tested form may be a part): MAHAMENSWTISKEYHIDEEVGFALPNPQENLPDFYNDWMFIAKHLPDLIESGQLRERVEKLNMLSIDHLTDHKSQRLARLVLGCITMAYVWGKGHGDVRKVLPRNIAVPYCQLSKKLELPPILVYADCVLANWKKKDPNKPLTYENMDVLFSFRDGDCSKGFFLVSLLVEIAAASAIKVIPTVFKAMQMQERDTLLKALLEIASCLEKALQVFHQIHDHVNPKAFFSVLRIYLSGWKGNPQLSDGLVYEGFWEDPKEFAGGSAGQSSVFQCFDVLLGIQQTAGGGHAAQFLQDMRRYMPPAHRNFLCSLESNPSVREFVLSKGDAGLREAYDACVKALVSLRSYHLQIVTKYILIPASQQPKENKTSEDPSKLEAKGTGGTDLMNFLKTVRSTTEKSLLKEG
Assay: Inhibition of human IDO1 (12 to 403 aa) expressed in Escherichia coli Transetta (DE3) by nanodrop 2000c spectrophotometric analysis
Assign IC50 to each entry below.
One number for each entry, in µM.

Exercise: Would you mind telling me what IC50 value was observed for OC(CNc1cc(Br)cc2[nH]ncc12)c1cccc(Cl)c1 (stereo unspecified) ?
Solution: 13.1

Provide the reported IC50 of each entry below, same order.
1. Brc1cc(NC[C@H]2CCCCN2)c2cn[nH]c2c1
2. O[C@@H]1CCCC[C@H]1CNc1cc(Br)cc2[nH]ncc12
3. OCC(Nc1cc(Br)cc2[nH]ncc12)c1ccccc1 (stereo unspecified)
4. O[C@H]1CCCC[C@@H]1NCc1cc(Br)cc2[nH]ncc12
5. N[C@H]1CCCC[C@H]1CNc1cc(Br)cc2[nH]ncc12

Solution:
1. 17.4
2. 0.64
3. 42.9
4. 204
5. 1.42
